meta.source: ChEMBL document CHEMBL4689842

Parameter Total Cell Count: see the listing below.
System: Fibroblast
TEST_SUMMARY: Multiplex assay against human fibroblast
Format: toxicity, cell-based
DETAILS: 12 h, 1 µM, compound concentration 1 uM, replicate 1
PARAMETER: Total Cell Count

• N#Cc1cnc(Nc2cc(NC[C@H]3CNCCO3)c(C(F)(F)F)cn2)cn1 = 196
• CC(C)N1CCC(C)(C)c2cc(C#Cc3ccc(C(=O)O)cc3)ccc21 = 207
• CCOc1cc(N2CCC(O)CC2)ccc1Nc1ncc2c(n1)N(C1CCCC1)CCC(=O)N2C = 197

----------
Tested on: HEK-293T
TEST_SUMMARY: Multiplex assay against HEK293T
Assay type: toxicity, cell-based
DETAILS: human, 12 h, 1 µM, compound concentration 1 uM, replicate 2
Parameter Population Mitochondria Different-Phenotype (%): see the listing below.
PARAMETER: Population Mitochondria Different-Phenotype (%)

- Cc1cc2c(cc1N1C(=O)c3cccc4c(CCCO)ccc(c34)C1=O)n(C)c(=O)n2C: 15
- CCCn1c(=O)c2[nH]c(C34CC5CC(CC3C5)C4)nc2n(CCC)c1=O [ROLOFYLLINE]: 18
- CCn1c(-c2nonc2N)nc2cnc(Oc3cccc(NC(=O)c4ccc(OCCN5CCOCC5)cc4)c3)cc21 [GSK-269962A]: 21
- CCC(=O)O[C@]1(C(=O)SCF)[C@H](C)C[C@H]2[C@@H]3C[C@H](F)C4=CC(=O)C=C[C@]4(C)[C@@]3(F)[C@@H](O)C[C@@]21C [FLUTICASONE PROPIONATE]: 13
- COc1cc2c(NC3CCN(C(C)C)CC3)nc(N3CCC(F)(F)CC3)nc2cc1OCCCN1CCCC1: 56
- N#Cc1cnc(Nc2cc(NC[C@H]3CNCCO3)c(C(F)(F)F)cn2)cn1 [SRA-737]: 7
- CCc1cc2c(cc1CC)CC(NC[C@H](O)c1ccc(O)c3[nH]c(=O)ccc13)C2 [INDACATEROL]: 50
- CNc1oc(-c2cccc3ccccc23)nc1C#N: 16
- CC(C)(C)c1cnc(CSc2cnc(NC(=O)C3CCNCC3)s2)o1 [BMS-387032]: 25
- CNC(=O)c1nn(C)c2c1C(C)(C)Cc1cnc(Nc3ccc(N4CCN(C)CC4)cc3)nc1-2 [MILCICLIB]: 64
- COc1ccc(NS(=O)(=O)c2sc3ccc(Cl)cc3c2C)cc1N1CCNCC1.Cl: 25
- Cl.Cl.NC1(c2ccc(-c3nc4ccn5c(=O)[nH]nc5c4cc3-c3ccccc3)cc2)CCC1: 20
- Cc1cn(-c2cc(NC(=O)c3ccc4c(c3)CN(c3cncnc3)C[C@@H]4C)cc(C(F)(F)F)c2)cn1: 8
- CC(=O)O[C@H]1C(=O)[C@@]2(C)[C@H]([C@H](OC(=O)c3ccccc3)[C@]3(O)C[C@H](OC(=O)[C@H](O)[C@@H](NC(=O)c4ccccc4)c4ccccc4)C(C)=C1C3(C)C)[C@]1(OC(C)=O)CO[C@@H]1C[C@@H]2O [PACLITAXEL]: 5
- Nc1ccc(C(=O)Nc2cccc(-c3nc(N4CCOCC4)c4oc5ncccc5c4n3)c2)cn1: 46
- Nc1nc2c(c(N3CCNCC3)n1)CCC1=C2[C@@H]2CCCC[C@@H]2O1: 33
- COc1cc(N2CCC(N(C)C)CC2)ccc1Nc1ncc(Cl)c(Nc2ccccc2P(C)(C)=O)n1: 19
- c1ccc2oc(-c3csc(C4CCN(Cc5nc6ncccc6[nH]5)CC4)n3)cc2c1: 21
- CC(C)Oc1ccc(C(=O)N[C@H](CNC(=O)CN(C)C)Cc2ccc(-c3cn4cccc([C@H](C)O)c4n3)cc2)cc1Cl [GSK-923295A]: 12
